assay: Pharmacokinetic study after oral administration; format: in vivo; details: female, mouse, 10 mg/kg FST equivalent, C57BL6 mice, plasma
measure: Tmax (min)
Give the quantity in min, number only.

(Q) Indicate the recorded Tmax value for this compound: O=c1c(O)c(-c2ccc(O)c(O)c2)oc2cc(O)ccc12 [FST]
(A) 15

###

assay: Apparent solubility of FST and FHIC in aqueous phase; assay type: physicochemical; settings: PBS
measure: solubility at 24 h (µg/mL)
Give the quantity in µg/mL, number only.

(Q) Indicate the recorded solubility at 24 h value for this compound: `O=c1c(O)c(-c2ccc(O)c(O)c2)oc2cc(O)ccc12`
(A) 5.25

###

assay: Pharmacokinetic study after oral administration; format: in vivo; conditions: female, mouse, 10 mg/kg FST equivalent, C57BL6 mice, plasma
measure: AUC(0-t)

(Q) Indicate the recorded AUC(0-t) value for this compound: O=c1c(O)c(-c2ccc(O)c(O)c2)oc2cc(O)ccc12 [FST]
(A) 80.4 ng·h/mL

###

assay: Pharmacokinetic study after oral administration; assay type: in vivo; details: female, mouse, 10 mg/kg FST equivalent, C57BL6 mice, plasma
measure: MRT (h)
Give the quantity in h, number only.

(Q) Indicate the recorded MRT value for this compound: O=c1c(O)c(-c2ccc(O)c(O)c2)oc2cc(O)ccc12 [FST]
(A) 3.82

###

assay: Pharmacokinetic study after oral administration; assay type: in vivo; conditions: female, mouse, 10 mg/kg FST equivalent, C57BL6 mice, plasma
measure: AUC(0-inf) (ng·h/mL)
Give the quantity in ng·h/mL, number only.

(Q) Indicate the recorded AUC(0-inf) value for this molecule: `O=c1c(O)c(-c2ccc(O)c(O)c2)oc2cc(O)ccc12`
(A) 100
